Biological target: VEGF (used to stimulate HUVEC cells) (UniProt P15692-4 27-191, limits assumed)
Sequence (P15692 other isoform, or with tags, fused parts or gaps limits assumed): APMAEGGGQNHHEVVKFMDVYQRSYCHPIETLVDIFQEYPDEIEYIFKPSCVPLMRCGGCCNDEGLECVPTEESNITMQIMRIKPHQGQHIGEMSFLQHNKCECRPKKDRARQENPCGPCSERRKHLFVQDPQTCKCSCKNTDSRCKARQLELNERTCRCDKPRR
Assay: cell-based or functional assay
test.readout: IC50, VEGF HUVEC Erk phosphorylation assay

{"binder": "VEGFBII024 (VHH, not shown: small tags and cut ends, Bivalent anti-VEGF VHH; also called VEGFBII23B04-40GS-86H09) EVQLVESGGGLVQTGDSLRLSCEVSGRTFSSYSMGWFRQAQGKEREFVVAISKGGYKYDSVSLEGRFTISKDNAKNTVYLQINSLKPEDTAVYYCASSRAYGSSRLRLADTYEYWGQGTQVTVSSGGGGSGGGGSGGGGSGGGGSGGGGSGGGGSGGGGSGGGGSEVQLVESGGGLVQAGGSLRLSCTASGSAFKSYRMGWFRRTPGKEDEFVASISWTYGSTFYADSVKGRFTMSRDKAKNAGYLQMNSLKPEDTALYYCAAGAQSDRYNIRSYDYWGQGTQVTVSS", "readout.value": "0.23 nM"}
{"binder": "VEGFBII010 (VHH, not shown: small tags and cut ends, Homodimeric bivalent anti-VEGF VHH; also called VEGFBII23B04-35GS-23B04) EVQLVESGGGLVQTGDSLRLSCEVSGRTFSSYSMGWFRQAQGKEREFVVAISKGGYKYDSVSLEGRFTISKDNAKNTVYLQINSLKPEDTAVYYCASSRAYGSSRLRLADTYEYWGQGTQVTVSSGGGGSGGGGSGGGGSGGGGSGGGGSGGGGSGGGGSEVQLVESGGGLVQTGDSLRLSCEVSGRTFSSYSMGWFRQAQGKEREFVVAISKGGYKYDSVSLEGRFTISKDNAKNTVYLQINSLKPEDTAVYYCASSRAYGSSRLRLADTYEYWGQGTQVTVSS", "readout.value": "0.19 nM"}
